For each of the variants below, state its yeast fitness.
B1: tRNA (parent)
chain: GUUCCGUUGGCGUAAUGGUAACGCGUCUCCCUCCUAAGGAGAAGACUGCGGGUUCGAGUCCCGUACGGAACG

Variants of: B1
assay-text: yeast fitness relative to wild type (ratio to wild type); higher = fitter; tRNA-Arg(CCU), competitive growth, 37 C, YPD
This sample holds only a part of the variants without activity.
Format: numeric value only, no unit, no commentary.

For the variant U8C C46U C49G , what yeast fitness is on record?
0.701

And the next one, C34G A36U G58A ?
0.605

And the next one, U2G G18C G23U U64A ?
0.606

And the next one, A42U G48A A65U ?
0.706

And the next one, U16G G44A C62U ?
0.652

And the next one, U8C A36G ?
0.865

And the next one, U26A A36U ?
0.606

And the next one, G25U U64A ?
0.687

And the next one, A45C G58A C62U A69C ?
0.59

And the next one, G9A A42G ?
0.96

And the next one, C29U G68U ?
0.803

And the next one, C4A C49A ?
0.684

And the next one, C60U A70G ?
0.786

And the next one, G17A G18A ?
0.65

And the next one, C11U C30U C49U ?
0.646

And the next one, G10A C11A ?
0.636

And the next one, A43C G63A ?
0.929

And the next one, A21G A37C A43U ?
0.618

And the next one, G9A C30A A42C ?
0.562

And the next one, A37U C66U ?
0.627

And the next one, G10A U26A C66U ?
0.537

And the next one, A14G G68A ?
0.653
